// provenance: patent EP4685142A1

Answer each item with its documented half-life.
Measurement notes: Pharmacokinetic evaluation in Balb/c mice
Format: in vivo
Setup conditions: male, Balb/c, mouse, in vivo, po, 5 mg/kg
Description: 4. Pharmacokinetic evaluation of compounds in Balb/c mice Experimental purpose: to understand pharmacokinetic properties of the compounds. Experimental basis: Technical Guidelines for Nonclinical Pharmacokinetic Studies of Chemical Drugs, 2014. Experimental protocol: the pharmacokinetic properties of the compounds were investigated via intravenous administration and intragastric administration in Balb/c mice. […]
Give the value in h but do not write h after it.

Data request: Find the recorded half-life belonging to CCN1CCC[C@@H](Nc2nnc(-c3ccc4sccc4c3O)n(CC)c2=O)C1 and report it.
Data returned: 3.08

Data request: GET /values?readout=half-life&item= CN1C[C@H](F)C[C@@H](Nc2nnc(-c3ccc4sccc4c3O)n(C)c2=O)C1
Data returned: 2.86

Data request: Sample CCN1C[C@H](F)C[C@@H](Nc2nnc(-c3ccc4sccc4c3O)n(CC)c2=O)C1 — what was its half-life?
Data returned: 1.61

Data request: Entry under review: CN1CCC[C@@H](Nc2nnc(-c3ccc4sccc4c3O)n(C)c2=O)C1 . Reported half-life?
Data returned: 3

Data request: Field request: half-life | item: Cn1c(-c2ccc3sccc3c2O)nnc(N[C@@H]2CCCC[C@H]2O)c1=O
Data returned: 0.19
